tested on: NCI-H1299; experiment: relative viability (nuclei count vs DMSO), 5 days (fraction); higher = more cells survive; conditions: first compound 0.01581 µM
relative viability values, listed per item
readout_name: relative viability

>  <compound>
CC1(C)CCC(c2ccc(Cl)cc2)=C(CN2CCN(c3ccc(C(=O)NS(=O)(=O)c4ccc(N[C@H](CCN5CCOCC5)CSc5ccccc5)c(S(=O)(=O)C(F)(F)F)c4)cc3)CC2)C1 [Navitoclax] + C[C@]1(O)C[C@@H](c2nc(-c3ccc4ccc(-c5ccccc5)nc4c3)c3c(N)nccn32)C1 [Linsitinib] (partner 1 µM)

>  <measurement_target>
NCI-H1299

>  <readout_name>
relative viability

>  <test_result>
1

$$$$
>  <compound>
CC1(C)CCC(c2ccc(Cl)cc2)=C(CN2CCN(c3ccc(C(=O)NS(=O)(=O)c4ccc(N[C@H](CCN5CCOCC5)CSc5ccccc5)c(S(=O)(=O)C(F)(F)F)c4)cc3)CC2)C1 [Navitoclax] + C[C@@H](Oc1cc(-c2cnn(C3CCNCC3)c2)cnc1N)c1c(Cl)ccc(F)c1Cl [Crizotinib] (partner 1 µM)

>  <measurement_target>
NCI-H1299

>  <readout_name>
relative viability

>  <test_result>
0.99

$$$$
>  <compound>
CC1(C)CCC(c2ccc(Cl)cc2)=C(CN2CCN(c3ccc(C(=O)NS(=O)(=O)c4ccc(N[C@H](CCN5CCOCC5)CSc5ccccc5)c(S(=O)(=O)C(F)(F)F)c4)cc3)CC2)C1 [Navitoclax] + O=C(c1cc(Cc2n[nH]c(=O)c3ccccc23)ccc1F)N1CCN(C(=O)C2CC2)CC1 [Olaparib] (partner 8 µM)

>  <measurement_target>
NCI-H1299

>  <readout_name>
relative viability

>  <test_result>
1

$$$$
>  <compound>
CC1(C)CCC(c2ccc(Cl)cc2)=C(CN2CCN(c3ccc(C(=O)NS(=O)(=O)c4ccc(N[C@H](CCN5CCOCC5)CSc5ccccc5)c(S(=O)(=O)C(F)(F)F)c4)cc3)CC2)C1 [Navitoclax] + Cc1nc(NC(=O)N2CCC[C@H]2C(N)=O)sc1-c1ccnc(C(C)(C)C(F)(F)F)c1 [Alpelisib] (partner 2 µM)

>  <measurement_target>
NCI-H1299

>  <readout_name>
relative viability

>  <test_result>
1.09

$$$$

* * *

system: NCI-H1395; test: relative viability (nuclei count vs DMSO), 5 days (fraction); higher = more cells survive; conditions: first compound 2.53 µM
relative viability values, listed per item

>  <molecule>
C=C1C(=O)O[C@@H](CCCCCCCC)[C@@H]1C(=O)O [C-75] + NC(=O)Nc1cc(-c2cccc(F)c2)sc1C(=O)N[C@H]1CCCNC1 [AZD7762] (partner 0.2 µM)

>  <relative viability>
0.4

$$$$
>  <molecule>
Oc1nc(-c2ccc(C(F)(F)F)cc2)nc2c1CSCC2 [XAV939] + CS(=O)(=O)CCNCc1ccc(-c2ccc3ncnc(Nc4ccc(OCc5cccc(F)c5)c(Cl)c4)c3c2)o1 [Lapatinib] (partner 2 µM)

>  <relative viability>
1.01

$$$$
>  <molecule>
Oc1nc(-c2ccc(C(F)(F)F)cc2)nc2c1CSCC2 [XAV939] + CC1(C)CCC(c2ccc(Cl)cc2)=C(CN2CCN(c3ccc(C(=O)NS(=O)(=O)c4ccc(N[C@H](CCN5CCOCC5)CSc5ccccc5)c(S(=O)(=O)C(F)(F)F)c4)cc3)CC2)C1 [Navitoclax] (partner 0.5 µM)

>  <relative viability>
1.16

$$$$
>  <molecule>
Oc1nc(-c2ccc(C(F)(F)F)cc2)nc2c1CSCC2 [XAV939] + C[C@]1(O)C[C@@H](c2nc(-c3ccc4ccc(-c5ccccc5)nc4c3)c3c(N)nccn32)C1 [Linsitinib] (partner 1 µM)

>  <relative viability>
0.974

$$$$
